- CONDITION INFO: buffer; pH 7.4; 200.0 µM
Listed here: items and their measured log10 of solubility kinetic.
MEASUREMENT LABEL: log10 of solubility kinetic (log10 of the value in µg/mL)

INSERT INTO assay_data (compound, measurement_label, data_value) VALUES
  ('CC(=O)c1ccc(NC(=S)N2CCC(Cc3ccccc3)CC2)cc1', 'log10 of solubility kinetic', 0.45),
  ('CC1CCCC(NC(=O)COC(=O)Cc2ccc(Cl)cc2)C1C (stereo not given)', 'log10 of solubility kinetic', 1.44),
  ('O=C(Nc1ccccc1)Nc1ccc(C(F)(F)F)cn1', 'log10 of solubility kinetic', -0.70),
  ('O=C1OC(Nc2ccc(F)c([N+](=O)[O-])c2)c2ccccc21 (stereo not given)', 'log10 of solubility kinetic', 1.63),
  ('Cc1cc(C)c(NC(=O)CNC(=O)c2ccc3ncsc3c2)c(C)c1', 'log10 of solubility kinetic', 0.83),
  ('CN1C(=O)N(C)C(=O)C2(Cc3cc([N+](=O)[O-])ccc3N(C)C2)C1=O', 'log10 of solubility kinetic', 0.72),
  ('O=C(CN1c2cccc3cccc(c23)S1(=O)=O)NCc1ccc(F)cc1', 'log10 of solubility kinetic', 1.44),
  ('COc1ccc(N2C(=O)CS/C2=N\C(=S)Nc2ccccc2)cc1', 'log10 of solubility kinetic', 0.15);

* * *

- CONDITION INFO: buffer; pH 7.4; 200.0 µM
MEASUREMENT LABEL: solubility kinetic

INSERT INTO assay_data (compound, measurement_label, data_value) VALUES
  ('CC1C(=O)N2CCCc3cc(NS(=O)(=O)c4ccccc4)cc1c32 (stereo not drawn)', 'solubility kinetic', '> 51.4 µg/mL'),
  ('O=C(CN1C(=O)COc2ccccc21)NCCCN1CCCC1', 'solubility kinetic', '> 47.6 µg/mL'),
  ('O=C(COc1cccnc1[N+](=O)[O-])NCc1ccccc1', 'solubility kinetic', '> 43.1 µg/mL');

* * *

- CONDITION INFO: buffer; pH 7.4; 200.0 µM
MEASUREMENT LABEL: solubility kinetic

INSERT INTO results (molecule, data_value) VALUES
  ('O=C(CNC1CCCCC1)Nc1cccc(C(F)(F)F)c1', '> 45 µg/mL'),
  ('Cc1ccc(C(=O)NCCCN2CCOCC2)c(C)c1', '> 41.5 µg/mL'),
  ('CCOc1ccc(Cn2cc(F)c(=O)[nH]c2=O)cc1', '> 39.6 µg/mL'),
  ('COc1ccccc1C(=O)NCc1ccco1', '> 34.7 µg/mL'),
  ('Cc1ccc(C23CCC(=O)N2C(C(=O)O)CS3)c(C)c1 (stereo unspecified)', '> 43.7 µg/mL'),
  ('C/C(CC(C)C)=N\Oc1nc(C)cc(C)n1', '> 33.2 µg/mL'),
  ('O=C1OCCN/C1=C\C(=O)c1ccccc1', '> 32.6 µg/mL'),
  ('CCOc1ccccc1C(=O)NN1CCOCC1', '> 37.5 µg/mL'),
  ('C[N+](C)=C1SCC(C)(/C=N/O)S1.[Br-] (stereo unspecified)', '> 42.8 µg/mL'),
  ('COc1cccc(-c2noc(CCC(=O)NCC3CCCO3)n2)c1 (stereo unspecified)', '> 49.7 µg/mL'),
  ('O=C(Nc1cccnc1)C12CC3CC(CC(C3)C1)C2', '> 38.5 µg/mL'),
  ('CCOc1ccccc1NC(=O)C1CCCN(S(C)(=O)=O)C1 (stereo unspecified)', '> 49 µg/mL'),
  ('Cc1cccc2sc(NS(=O)(=O)c3ccccc3)nc12', '> 45.7 µg/mL'),
  ('CN(Cc1c(F)cccc1Cl)C(=O)C1=CC=CN2CCS(=O)(=O)N=C12', '> 57.6 µg/mL'),
  ('O=C(C(=O)N1CCCC1)c1c[nH]c2ccccc12', '> 36.3 µg/mL'),
  ('Cc1csc(SCC(=O)NC(=O)NC(C)C)n1', '> 41 µg/mL'),
  ('CN1CCC(N(C)C(=S)Nc2ccc(F)cc2)CC1', '> 42.2 µg/mL'),
  ('C/C(N)=C(/C#N)C(=O)COC(=O)C1=NN(c2ccccc2)C(=O)CC1', '> 51.1 µg/mL'),
  ('CC(=O)Nc1ccc(/C=C/c2noc(-c3ccccc3O)n2)cc1', '< 0.2 µg/mL'),
  ('Cc1ccc(-c2nsc(SCC(=O)NCC3CCCO3)n2)cc1 (stereo unspecified)', '> 52.4 µg/mL'),
  ('Cc1cc(C(=O)OCC(=O)Nc2ccccc2C(F)(F)F)on1', '> 49.2 µg/mL');

These measurements were taken from PubChem BioAssay AID1996.
